# Tested on: A498
# METHOD SUMMARY: NCI tumour cell line growth inhibition, 48 h
Calls of active or inactive are those of the source. No stated cut-off is given here; in the data, active = GI50 up to about 1.1 µM and inactive = higher.
GI50 by entry:

Below, each entry is followed by its recorded GI50 result.
[
  {
    "MOLECULE": "COc1cc([C@@H]2c3cc4c(cc3[C@H](OC3OC5COC(c6ccco6)OC5C(O)C3O)C3COC(=O)[C@@H]32)OCO4)cc(OC)c1OC (some centres undefined)",
    "READOUT LABEL": "GI50",
    "RESULT VALUE": "2.29 µM (inactive)"
  },
  {
    "MOLECULE": "O=c1cc(NNc2ccc(F)cc2)[nH]c(=O)[nH]1",
    "READOUT LABEL": "GI50",
    "RESULT VALUE": "35.3 µM (inactive)"
  },
  {
    "MOLECULE": "CN1C2CCC1CC(=CCOC(c1ccc(F)cc1)c1ccc(F)cc1)C2",
    "READOUT LABEL": "GI50",
    "RESULT VALUE": "14.7 µM (inactive)"
  },
  {
    "MOLECULE": "O=c1cc(-c2cc(O)c(O)c(-c3c(O)cc4oc(-c5ccc(O)c(O)c5)cc(=O)c4c3O)c2)oc2cc(O)cc(O)c12",
    "READOUT LABEL": "GI50",
    "RESULT VALUE": "> 25 µM (inactive)"
  },
  {
    "MOLECULE": "Oc1ccc(NCn2c(=S)sc3ccccc32)cc1",
    "READOUT LABEL": "GI50",
    "RESULT VALUE": "> 100 µM (inactive)"
  },
  {
    "MOLECULE": "COc1cc2c(cc1OC)[C@H]1C(=O)c3cc4c(cc3[C@H]1N(C)C2=O)OCO4",
    "READOUT LABEL": "GI50",
    "RESULT VALUE": "8.43 µM (inactive)"
  },
  {
    "MOLECULE": "N=C(N)NS(=O)(=O)c1ccc(N/N=C2/CCOC2=O)cc1",
    "READOUT LABEL": "GI50",
    "RESULT VALUE": "> 100 µM (inactive)"
  },
  {
    "MOLECULE": "Cc1cc(C)n2c(nc3ccccc32)c1C#N",
    "READOUT LABEL": "GI50",
    "RESULT VALUE": "> 100 µM (inactive)"
  }
]

Task: Report GI50, nothing else, for this molecule: Cc1cc2c(cc1-c1cc3c(cc1C)C(C(C)C)=C(O)C(=O)/C3=C\Nc1c(C)n(C)n(-c3ccccc3)c1=O)/C(=C/Nc1c(C)n(C)n(-c3ccccc3)c1=O)C(=O)C(O)=C2C(C)C
Output: > 100 µM (inactive)
